- System: endothelial colony forming cells (ECFCs)
- experimental-protocol: ECFC rolling on peptide-grafted PEG hydrogels under shear (parallel plate flow chamber)
- Type: cell-based
- Design: unit not given here
- conditions-used: shear rate 20 1/s; 0.7 μmol/mL PEG-peptide grafted hydrogel; mean±SD (n=3)
Bridges are numbered along the chain shown (N, C = ends). Where no end group is shown, it is not given here.
measured-quantity: ECFC rolling velocity
Simply state the number, no unit and no words.

Q) What measured ECFC rolling velocity goes with YIGSRG (also: PEG conjugate) ?
A) 103.2

Q) What measured ECFC rolling velocity goes with PHSRNSGSGSGSGSGRGDSG [PRb] ?
A) 110.3

Q) What measured ECFC rolling velocity goes with HSDVHK [Peptide P11, synthesized as HSDVHKG] ?
A) 127.5

Q) What measured ECFC rolling velocity goes with CRRETAWAC (disulfide 1-9 (inferred); also: grafted on PEG hydrogel via acryloyl-PEG) ?
A) 131.6

* * *

- Tested on: endothelial colony forming cells (ECFCs)
- experimental-protocol: ECFC rolling on peptide-grafted PEG hydrogels under shear (parallel plate flow chamber)
- Assay type: cell-based
- Design: unit not given here
- conditions-used: shear rate 40 1/s; 0.7 μmol/mL PEG-peptide grafted hydrogel; mean±SD (n=3)
Bridges are numbered along the chain shown (N, C = ends). Where no end group is shown, it is not given here.
Answer each item with its documented ECFC rolling velocity.

Q) What measured ECFC rolling velocity goes with PHSRNSGSGSGSGSGRGDSG [PRb] ?
A) 235.0 ± 36.1

Q) What measured ECFC rolling velocity goes with CRRETAWAC (disulfide 1-9 (inferred); also: grafted on PEG hydrogel via acryloyl-PEG) ?
A) 278.4 ± 28.6

Q) What measured ECFC rolling velocity goes with YIGSRG (also: PEG conjugate) ?
A) 223.2 ± 38.0

Q) What measured ECFC rolling velocity goes with HSDVHK [Peptide P11, synthesized as HSDVHKG] ?
A) 251.0 ± 41.2
